# Tested on: HCC-2998 colon
# METHOD: NCI-60 one-dose screen, 48 h
# TEST CONDITIONS: 10 µM unless noted
About 83,000 compounds went through this panel and 20% of them were active in at least one assay; those are over-represented in the sample as a whole. The source made the active and inactive calls. The calls were made as follows: active = growth percent below 10; inactive = the rest.
Pick one and only one: active, inactive

COC1OCC(OS(=O)(=O)c2ccc(C)cc2)C(OC(=O)c2ccccc2)C1OC(=O)c1ccccc1 (stereo not given); inactive
COc1ccc2c(c1)C(=O)/C(=C/c1ccc(OCC(=O)c3ccc(Cl)cc3)cc1)O2; inactive
CC(=O)c1cc2c(c(O)c1C)C(=O)C(=O)c1c(O)cccc1-2; active
N#Cc1c2c(c(N)[nH]c1=O)C(=O)NC2(O)c1ccccc1 (stereo not given); inactive

Shift focus to the following entry.
Request: What did this assay record as the result for `Fc1cccc(F)c1C#Cc1ccc2cccnc2c1` ?
Response: inactive
